B1: TEKT4 (parent)
chain: SEVEELNMSLTALREKLLEAEQSL

# Variants of: B1
# Protocol Description: protein stability index of a GFP-peptide fusion (GPS, HEK-293T) (PSI 1-6); higher = more stable;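 also: lentivirally expressed fusions sorted by FACS into six bins by GFP to DsRed ratio, PSI derived from sequencing read proportions per bin multiplied by bin number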
# Setup Conditions: c terminus: a fixed tail appended
Readout Kind: protein stability index

T11S ... 2.92
K16L ... 2.85
L10V ... 2.25
E5L ... 2.43
L17R ... 3.69
E15P ... 3.76
L24N ... 4.97
E5R ... 2.35
S9T ... 2.67
E5I ... 1.95
L18D ... 5.37
L13T ... 5.4
E21F ... 2.62
E4C ... 2.29
L17Y ... 4.05
L17H ... 5.01
N7A ... 2.35
S9W ... 2.85
E19A ... 2.69
E19H ... 3.26
K16V ... 3.11
S9P ... 2.85
L10F ... 3.23
L13F ... 4.49
L6R ... 2.87
E21G ... 3.51
L6Y ... 2.6
T11G ... 3.02
E4H ... 2.06
S23Q ... 2.72
V3Q ... 3.4
E15R ... 3.11
T11E ... 4.1
A20K ... 4.9
E2W ... 1.98
A12S ... 2.46
A12W ... 2.56
L13E ... 5.42
S1M ... 2.27
E4R ... 2.02
E2R ... 3.06
E15Y ... 2.15
L13H ... 5.21
E15I ... 2.62
S9I ... 2.14
A12F ... 2.37
L13P ... 4.47
L6E ... 4.33
T11Y ... 1.81
S9A ... 3
V3R ... 2.83
L6F ... 3
L6M ... 3.47
S9M ... 2.4
Q22W ... 1.89
L24K ... 5.14
L13N ... 4.87
E21P ... 2.45
L17W ... 3.41
L17N ... 4.89
L10M ... 2.64
S23N ... 3.21
M8L ... 3.36
L18W ... 2.86
K16W ... 3.27
E2V ... 2.45
E15T ... 2.44
V3L ... 3.51
S23F ... 2.48
M8P ... 3.99
